Test system: U251 CNS
Possible outcomes: active, inactive

INSERT INTO assay_data (smiles_entry, system, class_label) VALUES
  ('COc1cc(/C=C/C(=O)/C=C/c2ccc(-n3ccnc3)cc2)ccc1O', 'U251 CNS', 'inactive'),
  ('COc1ccc(C2=NOC3=c4ccccc4=CSC3=C2c2ccccc2)cc1', 'U251 CNS', 'inactive'),
  ('O=C(Cc1csc2nc(-c3ccc(Br)cc3)cn12)N/N=C/c1ccccc1O', 'U251 CNS', 'inactive'),
  ('C#CCN(CCCOc1ccc(Cl)cc1Cl)CCCSC(=O)CCCCCN1/C(=C\C=C2/CCCC(/C=C/C3=[N+](CCCCCC(=O)[O-])c4ccccc4C3(C)C)=C2Cl)C(C)(C)c2ccccc21', 'U251 CNS', 'inactive'),
  ('Oc1ccccc1/C=N/c1nc(-c2ccccc2)cs1', 'U251 CNS', 'inactive'),
  ('COc1ccc(-c2nn(-c3cccc(Cl)c3)cc2-c2c(C#N)c(=O)n3[nH]c(-c4ccc(C)o4)nc3c2C#N)cc1', 'U251 CNS', 'inactive'),
  ('COc1ccccc1CNCCCN1C(=O)c2ccc3c4c(ccc(c24)C1=O)C(=O)N(CCCNCCCCN)C3=O', 'U251 CNS', 'active');

---

TGI values for the compounds below.
Tested on: UACC-62 melanoma
procedure.summary: NCI tumour cell line growth inhibition, 48 h
endpoint.label: TGI (µM)

INSERT INTO measurements (compound, readout_relation, readout_value) VALUES
  ('C[N+](C)([O-])C12CC3CC(CC(C3)C1)C2', '=', 47.4),
  ('Clc1ccc(C2=CC(c3ccccc3)N3C(=N[C@H]4CCCC[C@@H]43)N2)cc1 (stereo not given in full)', '=', 18.6),
  ('CN(C)c1ccc(/C=C2\N=C(c3ccccc3)N(c3nc4ccc(Sc5ccccc5)cc4[nH]3)C2=O)cc1', '=', 82.4),
  ('Nc1nc2c([nH]1)c1[nH]c3ccccc3c1c1[nH]c3ccccc3c21', '=', 30),
  ('Cc1c(-c2ccccc2)oc(=O)c2ccccc12', '=', 33),
  ('O=C(NCCOC(=O)CCCCCCCCC(=O)OCCNC(=O)NC(=O)c1cn(Cc2ccccc2)c(=O)[nH]c1=O)NC(=O)c1cn(Cc2ccccc2)c(=O)[nH]c1=O', '>', 100),
  ('O=c1c2ccccc2n2nnc3ccc(NCCNCCO)c1c32', '=', 8.68),
  ('CN(C)CCCNC(=O)N/N=C/c1ccccn1', '>', 10),
  ('O=C(CC/C(CC(=O)c1ccc(Cl)cc1)=N\O)Nc1cccc(Cl)c1', '>', 100),
  ('CNc1ccc(CSc2ccc(C)cc2)cc1', '=', 52.9),
  ('O=c1[nH]c2ccccc2c(=O)n1/N=C\c1ccccc1O', '>', 100),
  ('Cc1cc(C)n(C(C)(C(=O)Cc2ccccc2)n2nc(C)cc2C)n1', '>', 100),
  ('COc1cc(-c2cc(OC)c(OC)c3ccc(Br)cc23)c2cc(Br)ccc2c1OC', '=', 47.7),
  ('Clc1ccc(/C=C/c2csnn2)cc1', '>', 100),
  ('O=[N+]([O-])C(/C=C(\Cl)[N+](=O)[O-])=C(Nc1ccccc1)Nc1ccccc1', '=', 21.3);
